ASSAYED_SYSTEM: MAP kinase-activated protein kinase 2 (Homo sapiens, UniProt P49137)
Sequence (P49137 whole entry): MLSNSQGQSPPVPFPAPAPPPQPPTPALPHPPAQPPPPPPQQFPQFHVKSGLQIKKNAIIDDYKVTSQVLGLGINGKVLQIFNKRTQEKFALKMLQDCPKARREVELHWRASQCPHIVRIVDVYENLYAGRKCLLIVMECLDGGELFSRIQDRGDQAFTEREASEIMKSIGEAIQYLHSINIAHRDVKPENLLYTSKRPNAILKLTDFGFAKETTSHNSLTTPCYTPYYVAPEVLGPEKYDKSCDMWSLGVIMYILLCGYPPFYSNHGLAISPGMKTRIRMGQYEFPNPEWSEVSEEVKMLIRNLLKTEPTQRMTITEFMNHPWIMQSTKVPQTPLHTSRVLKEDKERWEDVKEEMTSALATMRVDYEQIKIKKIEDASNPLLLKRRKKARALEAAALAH
Type: functional, cell-based, Monocyte
REPORTED_METRIC: pIC50
Entry type: numeric. Quantity: pIC50, the -log10 of concentration in molar units.

Q. GET /values?readout=pIC50&item= Cc1ccc(-c2ccc3c(ccc4sc5c(c43)NC[C@@H](C)NC5=O)n2)cn1
A. 5.56

====

ASSAYED_SYSTEM: MAP kinase-activated protein kinase 2 (Homo sapiens, UniProt P49137)
Assay type: functional, cell-based, Monocyte
REPORTED_METRIC: pIC50
Notebook: values listed as pIC50 are -log10 of the concentration (mol/L).

Q. Entry under review: Cc1ccc(-c2ccc3c(ccc4sc5c(c43)NC[C@@H](C)NC5=O)n2)cn1 . Reported pIC50?
A. 6.89

Just for reference, ChEMBL document CHEMBL5444388 is where these values come from.
